- Assay system: p210^bcr-abl (Homo sapiens)
- Construct: immune complexes containing ^32P-labeled p210^bcr-abl were collected on protein Sepharose beads; BCR (N-terminal part of the breakpoint cluster region protein, natural fusion partner); endogenous in cells; host or cells: K562 cells (lysate, immunoprecipitated on Protein A-Sepharose); the other entry of the earlier key: BCR (P11274, Breakpoint cluster region protein)
- Measurement protocol: Inhibition of in vitro auto-phosphorylation of p210^bcr-abl, immune-complex kinase assay
- Type: biochemical
- Condition label: Table 8; immune complex kinase assay; mean+S.E., 3 experiments; read-out: Enzyme Assays IC50 (μM) p210bcl-abl in vitro phosphorylation
Rule: IC50 below 10 µM gives met. Equal to or above 10 µM gives not met.

compound=COC(=O)c1ccc(NCc2cc(O)ccc2O)cc1O category_label=met
compound=CC(C)(C)OC(=O)c1ccc(NCc2cc(O)ccc2O)cc1 category_label=met
compound=O=C(OC12CC3CC(CC(C3)C1)C2)c1ccc(NCc2cc(O)ccc2O)cc1 category_label="not met"
compound="CC(C)N(C(=O)c1ccc(NCc2cc(O)ccc2O)cc1)C(C)C [CON[CH(CH3)2]2 / H / H]" category_label=met
compound="CC(C)C(OC(=O)c1ccc(NCc2cc(O)ccc2O)cc1)C(C)C [COOCH[CH(CH3)2]2 / H / H]" category_label="not met"

API: query returns whether the compound falls strictly under 10 µM in IC50. Query: "COP(=O)(OC)c1ccc(NCc2cc(O)ccc2O)cc1" met

API: query returns whether the compound falls strictly under 10 µM in IC50. Query: "O=C(OCc1ccccc1)c1ccc(NCc2cc(O)ccc2O)cc1" not met

API: query returns whether the compound falls strictly under 10 µM in IC50. Query: Oc1ccc(O)c(CNc2ccc(C(O)C(F)(F)F)cc2)c1 (stereo not drawn) met

API: query returns whether the compound falls strictly under 10 µM in IC50. Query: "O=C(O)c1cc(N(Cc2ccccc2O)Cc2cc(O)ccc2O)ccc1O" not met

----------
- Test system: panel of approximately 60 different human tumor cell lines
- Measurement protocol: National Cancer Institute drug screen, mean-graph parameters
- Assay type: cell-based
- Condition label: Homo sapiens, 48 h; Table 9; mean over cell line panel, two days exposure; read-out: Tumor cell Mean log GI50 (converted)
Metric name: GI50 (µM)
State the answer as a number, implicitly in µM.

Example results:
test_smiles=CC(C)(C)OC(=O)c1ccc(NCC2=C(Br)C(=O)C=CC2=O)cc1 metric_name=GI50 measured_result=17.8
test_smiles=CC(C)OC(=O)c1ccc(NCC2=CC(=O)C=CC2=O)cc1 metric_name=GI50 measured_result=26.9
test_smiles=COC(=O)c1ccc(NCC2=CC(=O)C=CC2=O)cc1O metric_name=GI50 measured_result=17

We now examine a further compound.
Item: "CC(C)OC(=O)c1ccc(NCC2=CC(=O)C=CC2=O)cc1Cl" Test system: panel of approximately 60 different human tumor cell lines Read-out: GI50 Value: ? 9.55

----------
- Assay system: p210^bcr-abl (Homo sapiens, UniProt P00519)
- Construct: immune complexes containing ^32P-labeled p210^bcr-abl were collected on protein Sepharose beads; BCR (N-terminal part of the breakpoint cluster region protein, natural fusion partner); endogenous in cells; host or cells: K562 cells (lysate, immunoprecipitated on Protein A-Sepharose); the other entry of the earlier key: BCR (P11274, Breakpoint cluster region protein)
- Sequence (P00519 with tags, fused parts or gaps): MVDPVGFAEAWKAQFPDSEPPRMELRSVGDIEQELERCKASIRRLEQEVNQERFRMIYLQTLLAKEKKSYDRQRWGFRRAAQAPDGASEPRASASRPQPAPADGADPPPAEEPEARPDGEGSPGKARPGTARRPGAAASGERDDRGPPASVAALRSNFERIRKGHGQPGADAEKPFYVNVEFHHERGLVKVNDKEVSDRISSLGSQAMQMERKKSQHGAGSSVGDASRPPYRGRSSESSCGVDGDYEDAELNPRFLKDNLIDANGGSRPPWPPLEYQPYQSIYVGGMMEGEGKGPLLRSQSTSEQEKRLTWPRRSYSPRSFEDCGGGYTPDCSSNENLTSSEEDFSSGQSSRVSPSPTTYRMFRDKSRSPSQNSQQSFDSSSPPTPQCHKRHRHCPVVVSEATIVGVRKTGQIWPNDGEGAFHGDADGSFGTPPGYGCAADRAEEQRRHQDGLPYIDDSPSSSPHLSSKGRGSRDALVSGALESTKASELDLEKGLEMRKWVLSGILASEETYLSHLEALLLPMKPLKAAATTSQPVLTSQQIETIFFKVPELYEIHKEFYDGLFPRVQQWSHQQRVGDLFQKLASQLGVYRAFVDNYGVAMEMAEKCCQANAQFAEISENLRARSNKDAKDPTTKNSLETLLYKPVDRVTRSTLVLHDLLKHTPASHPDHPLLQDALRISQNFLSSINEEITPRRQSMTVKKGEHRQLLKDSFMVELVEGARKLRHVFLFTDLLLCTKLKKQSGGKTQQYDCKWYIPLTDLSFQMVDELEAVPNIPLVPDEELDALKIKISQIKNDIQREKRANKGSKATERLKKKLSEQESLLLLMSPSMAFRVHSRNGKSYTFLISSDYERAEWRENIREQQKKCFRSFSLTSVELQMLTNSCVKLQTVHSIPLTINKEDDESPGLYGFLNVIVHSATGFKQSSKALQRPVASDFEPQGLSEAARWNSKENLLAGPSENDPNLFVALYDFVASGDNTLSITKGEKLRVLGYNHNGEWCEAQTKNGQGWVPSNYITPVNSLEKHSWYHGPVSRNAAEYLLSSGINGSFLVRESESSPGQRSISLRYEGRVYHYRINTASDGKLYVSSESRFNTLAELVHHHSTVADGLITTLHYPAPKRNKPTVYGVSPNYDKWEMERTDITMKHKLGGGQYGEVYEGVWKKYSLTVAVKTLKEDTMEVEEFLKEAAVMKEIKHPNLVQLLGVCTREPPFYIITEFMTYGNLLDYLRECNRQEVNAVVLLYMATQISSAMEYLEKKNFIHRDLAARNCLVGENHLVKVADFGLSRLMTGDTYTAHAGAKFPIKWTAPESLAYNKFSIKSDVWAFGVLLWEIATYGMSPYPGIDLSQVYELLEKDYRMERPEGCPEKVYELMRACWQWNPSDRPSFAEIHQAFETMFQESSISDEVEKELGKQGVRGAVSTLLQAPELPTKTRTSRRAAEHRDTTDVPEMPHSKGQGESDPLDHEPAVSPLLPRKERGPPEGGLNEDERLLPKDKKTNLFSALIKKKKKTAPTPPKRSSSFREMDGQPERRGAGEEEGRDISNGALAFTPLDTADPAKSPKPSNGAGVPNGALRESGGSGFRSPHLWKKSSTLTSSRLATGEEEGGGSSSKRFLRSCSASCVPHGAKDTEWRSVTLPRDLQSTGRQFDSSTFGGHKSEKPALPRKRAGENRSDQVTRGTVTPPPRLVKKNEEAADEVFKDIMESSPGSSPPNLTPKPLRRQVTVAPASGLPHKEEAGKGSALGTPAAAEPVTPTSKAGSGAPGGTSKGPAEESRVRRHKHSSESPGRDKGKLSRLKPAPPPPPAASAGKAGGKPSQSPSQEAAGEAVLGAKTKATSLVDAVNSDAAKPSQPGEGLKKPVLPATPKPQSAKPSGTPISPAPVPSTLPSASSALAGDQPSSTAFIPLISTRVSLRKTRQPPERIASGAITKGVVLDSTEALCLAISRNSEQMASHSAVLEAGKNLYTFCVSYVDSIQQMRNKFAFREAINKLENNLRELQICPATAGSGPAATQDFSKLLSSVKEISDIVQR
- Measurement protocol: Inhibition of in vitro auto-phosphorylation of p210^bcr-abl, immune-complex kinase assay
- Assay type: biochemical
- Condition label: Table 10; immune complex kinase assay; mean ± S.E., 3 experiments; read-out: Enzyme Assays IC50 (μM) p210bcl-abl in vitro phosphorylation
Listed next: entries and their corresponding IC50.
State the answer as a number, implicitly in µM.

Example results:
molecule="CC(C)OC(=O)c1ccc(CCC2=CC(=O)C=CC2=O)cc1 [COOCH(CH3)2 / 2,5-quinoyl / CH2—CH2 / H]" metric_name=IC50 display_unit=µM measured_result=5.26
molecule="COC(=O)c1ccc(/C=C/C2=CC(=O)C=CC2=O)cc1 [COOCH3 / 2,5-quinoyl / CH═CH / H]" metric_name=IC50 display_unit=µM measured_result=5.47

We now examine a further molecule.
Quick check: IC50 of COC(=O)c1ccc(C=Cc2cc(O)ccc2O)cc1 [COOCH3 / 2,5-dihydoxyphenyl / CH═CH / H] ? 19.9
